- assay text: CCTE_Mundy_HCI_Cortical_Synap_Neur_Matur_BPCount: CCTE's Synaptogenesis and Neurite Maturation Assay in rat cortical cells for Branch Point Count, Mundy Lab (AID 2284211)
Calls of active or inactive are those of the source. Rule for the calls: active = hit-call score of the fitted dose curve at least 0.9, where 1 is the maximum; inactive = score below 0.9.
Write down the outcome that applies. Available outcomes: active, inactive

Solved cases (4 shown):
compound	label value
O=[As]O	active
CCOP(=O)(OCC)SCSC(C)(C)C	inactive
CC1(C)[C@H](C=C(Cl)Cl)[C@@H]1C(=O)O[C@@H](C#N)c1cccc(Oc2ccccc2)c1	inactive
CCOP(=O)(OCC)OC(Cl)C(Cl)(Cl)Cl (stereo unspecified)	active

Query: recorded result category for C[C@H](N)Cc1ccccc1 in this test
inactive

What outcome does the record of this test show for CCOP(=S)(OCC)SCS(=O)C(C)(C)C (stereo unspecified) ?
inactive

###

- system tested: Nuclear respiratory factor 1 (Homo sapiens)
- assay text: ATG_NRF1_CIS: Attagene CIS-FACTORIAL HepG2 Assay for human Nuclear Respiratory Factor 1 (NRF1) Orphan Gene (AID 2282987)
- conditions: HepG2 NRF1 cis-element reporter, Attagene multiplex; actives raise or lower the signal
The source made the active and inactive calls. Rule for the calls: active = hit-call score of the fitted dose curve at least 0.9, where 1 is the maximum; inactive = score below 0.9.
Pick one: 1 (yes) (active), 0 (no) (inactive)

smiles notation	label value
O=C(O)COc1ccccc1	0 (no)
C=CCO	0 (no)
Oc1ccc(C2(c3ccc(O)cc3)c3ccccc3-c3ccccc32)cc1	1 (yes)
CCNCC	0 (no)
Oc1ccc(Cl)cc1	0 (no)
O=[N+]([O-])c1cc([N+](=O)[O-])c2ccccc2c1	0 (no)
C[N+](C)(C)CC(=O)[O-]	0 (no)

Could you now consider this next compound?
Give the logged outcome of this assay for the following compound: N#CC(c1ccccc1)c1ccccc1
0 (no)

###

- system tested: PGR (gene 5241)
- assay text: TOX21_PR_LUC_Followup_Antagonist: Tox21 HEK293 Progesterone Receptor (PR) Antagonism Luciferase Follow-Up Assay (AID 2283938);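 note: curve fitted upward as signal gain over DMSO baseline despite antagonist label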
Records with an inconclusive call do not appear. Active and inactive are the calls of the source. The calls were made as follows: active = hit-call score of the fitted dose curve at least 0.9, where 1 is the maximum; inconclusive = response in the unintended direction; inactive = score below 0.9.
Your answer must be one of the following: active, inactive

Field: example entries. Status: answers known.
molecule	label value
C[C@]12CC[C@H]3[C@@H](CC[C@@]45O[C@@H]4C(O)=C(C#N)C[C@]35C)[C@@H]1CC[C@@H]2O	inactive
CC[C@H]1C[C@H]2[C@@H]3CCC4=CC(=O)CC[C@@H]4[C@H]3CC[C@]2(C)[C@H]1O	inactive
C[C@]12C/C(=C/O)C(=O)C[C@@H]1CC[C@@H]1[C@@H]2CC[C@@]2(C)[C@H]1CC[C@]2(C)O	inactive
O=C(CBr)Nc1ccc(Cl)cc1C(=O)c1ccccc1F	inactive

Field: outcome | Entry: O=[N+]([O-])c1ccc2ccc3cccc4ccc1c2c34
active

###

- system tested: Bile acid receptor (Homo sapiens) (UniProt Q96RI1)
- Sequence (Q96RI1 whole entry, looked up): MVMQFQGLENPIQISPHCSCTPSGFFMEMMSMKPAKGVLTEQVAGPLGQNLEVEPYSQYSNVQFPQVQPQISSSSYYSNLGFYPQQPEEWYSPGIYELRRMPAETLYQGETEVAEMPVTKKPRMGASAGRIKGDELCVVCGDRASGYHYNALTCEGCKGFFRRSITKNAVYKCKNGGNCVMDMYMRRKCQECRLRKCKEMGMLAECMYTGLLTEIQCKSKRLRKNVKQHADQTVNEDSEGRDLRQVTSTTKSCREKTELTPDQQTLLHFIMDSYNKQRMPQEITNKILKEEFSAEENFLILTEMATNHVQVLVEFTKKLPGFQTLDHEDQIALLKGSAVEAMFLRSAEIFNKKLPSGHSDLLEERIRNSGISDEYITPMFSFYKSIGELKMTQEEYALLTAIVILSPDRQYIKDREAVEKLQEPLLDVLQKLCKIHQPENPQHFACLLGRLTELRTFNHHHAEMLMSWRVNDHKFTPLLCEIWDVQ
- assay text: OT_FXR_FXRSRC1_0480: Odyssey Thera (OT) 8-hour HEK293T Protein-Complementation Assay for Farnesoid X receptor/SRC-1 Co-activator (AID 2283383)
Inconclusive results are not listed. Calls of active or inactive are those of the source. How the source made its calls: active means hit-call score of the fitted dose curve at least 0.9, where 1 is the maximum; inconclusive means response in the unintended direction; inactive means score below 0.9.
Hi there, use one of these labels in your reply, thanks! true (1) (active), false (0) (inactive)

Below are worked cases with known answers.
compound	label value
O=C1Nc2ccc(Cl)cc2C(c2ccccc2)=NC1O (configuration not stated)	false (0)
CCOP(=O)(OCC)Oc1ccc([N+](=O)[O-])cc1	false (0)
O=C(NC(=O)c1c(F)cccc1F)Nc1ccc(Oc2ccc(C(F)(F)F)cc2Cl)cc1F	true (1)
Cc1cc(C)c(C2=C(OC(=O)CC(C)(C)C)C3(CCCC3)OC2=O)c(C)c1	false (0)
c1ccc2c(c1)CCCC2	false (0)
Cc1ccc(C)c2ccccc12	false (0)

Shift focus to the following entry.
What was the test verdict on O=C(NCNC(=O)NC1C(=O)NC(=O)N1CO)NC1C(=O)NC(=O)N1CO (configuration not stated) ?
false (0)

###

- Read-out: Pselectin, SELP (gene 6403)
- assay text: BSK_4H_Pselectin: BioMAP Diversity Plus: 4H Assay for Pselectin Biomarker Activity (AID 2283026)
- conditions: primary human endothelial cells (HUVEC); actives raise or lower the signal
Calls of active or inactive are those of the source. The calls were made as follows: active = hit-call score of the fitted dose curve at least 0.9, where 1 is the maximum; inactive = score below 0.9.
Please reply with one of these outcomes: active, inactive

// known answers, use as guide
compound	label value
Clc1ccc(-c2ccccc2)cc1	active
Nc1ccc(-c2ccc(N)c(N)c2)cc1N	active
CC1(C)[C@H](C(=O)O[C@H](C#N)c2cccc(Oc3ccccc3)c2)[C@@H]1C=C(Br)Br	inactive
CC(C)COP(=O)(OCC(C)C)OCC(C)C	inactive
CCC(C)c1cc([N+](=O)[O-])cc([N+](=O)[O-])c1OC(=O)C=C(C)C (centres undefined)	active
O=P1(NCCCl)OCCCN1CCCl (centres undefined)	inactive
CCCCCCCCCCCC#N	active
CNC(=O)Oc1cc(C)c(SC)c(C)c1	inactive
C=CCN(CC=C)C(=O)C(Cl)Cl	inactive
COCC(=O)N(c1c(C)cccc1C)N1CCOC1=O	inactive

Recorded call for Oc1cc(Cl)ccc1Cl ?
inactive

Please share the test call associated with CCCOC(=O)c1ccccc1C(=O)OCCC .
inactive

Please share the test call associated with CCc1cc(C)cc(CC)c1-c1c(OC(=O)C(C)(C)C)n2n(c1=O)CCOCC2 .
inactive

GET /call?item= O=S(=O)(c1ccccc1)c1ccccc1 returns the recorded outcome of this test.
inactive

Outcome logged for O=C(CCl)c1ccccc1 in this assay:
active

Per the assay record, what outcome was assigned to CCCC[N+](CCCC)(CCCC)CCCC ?
inactive

###

- assay text: ATG_MRE_CIS: Attagene CIS-FACTORIAL HepG2 Assay for human Metal Responsive Element (MRE) (AID 2282954)
- conditions: HepG2 MRE cis-reporter transcription, Attagene multiplex; actives raise or lower the signal
Activity calls are given as the source filed them. Rule for the calls: active = hit-call score of the fitted dose curve at least 0.9, where 1 is the maximum; inactive = score below 0.9.
Returns: one label drawn from active, inactive

compound	label value
CCC(=O)c1ccc(Cl)cc1	inactive
CN1C[C@H](C(=O)N[C@]2(C)O[C@@]3(O)[C@@H]4CCCN4C(=O)[C@H](Cc4ccccc4)N3C2=O)C=C2c3cccc4[nH]cc(c34)C[C@H]21	inactive
CC(=O)c1cc2c(cc1C)C(C)(C)C(C)CC2(C)C (stereo not drawn)	active
O=C(O)CCl	inactive
Nc1c(Cl)c(Cl)c(Cl)c(Cl)c1Cl	inactive

Write down the call the test reported for this compound. Item: CCC(C)c1cc([N+](=O)[O-])cc([N+](=O)[O-])c1OC(=O)C=C(C)C (stereo not drawn)
active

Per the records of this test, what outcome belongs to C=CC(=O)OCCO ?
active

Hi, do you know how CC(C)c1ccc(O)cc1 came out in this test?
inactive

Any idea what this test logged for CC(C)CCCCCCCOP(=O)(Oc1ccccc1)Oc1ccccc1 ?
inactive

Could you check what this test reported for COC(=O)c1ccccc1S(=O)(=O)NC(=O)Nc1nc(C)cc(C)n1 ?
inactive

Assay result, entry O=CNC(N1CCN(C(NC=O)C(Cl)(Cl)Cl)CC1)C(Cl)(Cl)Cl (stereo not drawn) — outcome?
inactive

Called result for CCC1CCC(=O)O1 (stereo not drawn)
inactive

For CC1CCC(=O)O1 (stereo not drawn) , which call appears in the assay record?
inactive

Entry O=S(=O)(O)OOS(=O)(=O)O : call = ?
inactive

Which result was noted for this compound in the test: CCN(CC)C(=S)S
active

Which outcome did this test record for the compound CC(C)(c1cc(Cl)c(O)c(Cl)c1)c1cc(Cl)c(O)c(Cl)c1 ?
active

Hello, I am checking results. What call was entered for COc1ccc(CO)cc1 ?
inactive

How did this test come out for CCCC=NO ?
inactive

###

- assay text: ATG_VDRE_CIS: Attagene CIS-FACTORIAL HepG2 Assay for human Vitamin D Receptor Element (VDRE) (AID 2282968)
- conditions: HepG2 VDRE cis-reporter transcription, actives raise or lower the signal
The source made the active and inactive calls. Rule for the calls: active = hit-call score of the fitted dose curve at least 0.9, where 1 is the maximum; inactive = score below 0.9.
Hello, when you answer, please use one of the following outcomes: y (active), n (inactive)

molecule	label value
CCOP(=O)(OCC)Oc1ccc([N+](=O)[O-])cc1	n
CCOC(=O)N(C)N=O	n
COc1cc(OC)c(OC)cc1C=O	n
CC(=O)C=Cc1ccccc1	y
O=C1C(Cl)=C(Cl)C(=O)C(Cl)=C1Cl	n
[Cl-].[Cl-].[Cl-].[Yb+3]	n
CC(C)(Cl)Cl	n
C[C@]12CC[C@H](O)C[C@H]1CC[C@@H]1[C@@H]2C[C@@H](O)[C@]2(C)[C@@H](C3=CC(=O)OC3)CC[C@]12O	y

Alright, here's another molecule for you.
Assay result, entry C=CC(=O)OCC(CC)CCCC (stereo unspecified) — outcome?
n

###

- system tested: Transcriptional activator Myb (Homo sapiens)
- assay text: ATG_Myb_CIS: Attagene CIS-FACTORIAL HepG2 Assay for human Myeloblastosis (Myb) Proto-Oncogene Transcription Factor (AID 2282986)
- conditions: HepG2 Attagene CIS-FACTORIAL Myb reporter transcription; actives raise or lower the signal
The source made the active and inactive calls. Rule for the calls: active = hit-call score of the fitted dose curve at least 0.9, where 1 is the maximum; inactive = score below 0.9.
Please state which outcome applies, choosing from yes (1) (active), no (0) (inactive)

Recorded results for 5 compounds are shown here.
compound	system tested	label value
CN(C)CCC#N	Transcriptional activator Myb (Homo sapiens)	no (0)
CSc1nc(N=[N+]=[N-])nc(NC(C)C)n1	Transcriptional activator Myb (Homo sapiens)	no (0)
COC(C)(C)CCC[C@H](C)C/C=C/C(C)=C/C(=O)OC(C)C	Transcriptional activator Myb (Homo sapiens)	yes (1)
CCC(=O)c1ccc(Cl)cc1	Transcriptional activator Myb (Homo sapiens)	no (0)
CCCC=NO	Transcriptional activator Myb (Homo sapiens)	no (0)

Let's switch to this compound now.
What classification did CCCCCCC1CCOC1=O (configuration not stated) end up with in this test?
no (0)
